# Tested on: kochia (Kochia scoparia)
# assay-comment: Test B pre-/postemergence plant response
# Format: in vivo
# condition-details: Postemergence, 125 g ai/ha; scale 0 to 100 (0 no effect, 100 complete control)
measured-quantity: Plant response rating, Kochia
Would you mind answering with just the numeric figure?

CCCn1c(-c2cccc(F)c2)ncc(C(=O)C2=C(O)CCCC2=O)c1=O [Compound 127] ... 100
O=C1CCCC(O)=C1C(=O)c1cnc(-c2ccsc2)n(C2CCOCC2)c1=O [Compound 186] ... 100

Q: I would be grateful if you could share the reported Plant response rating, Kochia for CCc1cccc(-n2c(-c3ccccc3)ncc(C(=O)C3=C(O)CCCC3=O)c2=O)c1 [Compound 220] .
Result: 75

====

# Tested on: large crabgrass (Digitaria sanguinalis)
# assay-comment: Test B pre-/postemergence plant response
# Format: in vivo
# condition-details: Preemergence, 31 g ai/ha; scale 0 to 100 (0 no effect, 100 complete control)
measured-quantity: Plant response rating, Crabgrass, Large
Would you mind answering with just the numeric figure?

Worked examples follow.
CCCCc1ncc(C(=O)C2=C(O)CCCC2=O)c(=O)n1-c1ccccc1C [Compound 62] ... 0
O=C1CCCC([O-])=C1C(=O)c1cnc(-c2ccccc2)n(-c2ccccc2)c1=O.[K+] [Compound 14] ... 5
CCn1c(-c2ccccc2)ncc(C(=O)C2=C(O)CCCC2=O)c1=O [Compound 49] ... 75
COCCCn1c(-c2cc(F)cc(F)c2)ncc(C(=O)C2=C(O)C3CCC(C3)C2=O)c1=O (centres unmarked) [Compound 244] ... 98
Cc1ccc(-n2c(-c3cccc(Cl)c3)ncc(C(=O)C3=C(O)CCCC3=O)c2=O)cc1 [Compound 39] ... 55

Q: I would be grateful if you could share the reported Plant response rating, Crabgrass, Large for O=C1CCCC(O)=C1C(=O)c1cnc(-c2cccc(Br)c2)n(-c2ccccc2)c1=O [Compound 69] .
Result: 98

Q: I would be grateful if you could share the reported Plant response rating, Crabgrass, Large for Cc1cccc(-n2c(-c3ccccc3)ncc(C(=O)C3=C(O)CCCC3=O)c2=O)c1C [Compound 27] .
Result: 5

Q: I would be grateful if you could share the reported Plant response rating, Crabgrass, Large for CCCCn1c(C2CC2)ncc(C(=O)C2=C(O)CCCC2=O)c1=O [Compound 193] .
Result: 100

====

# Tested on: Surinam grass (Brachiaria decumbens)
# assay-comment: Test B pre-/postemergence plant response
# Type: in vivo
# condition-details: Postemergence, 125 g ai/ha; scale 0 to 100 (0 no effect, 100 complete control)
measured-quantity: Plant response rating, Surinam Grass
Would you mind answering with just the numeric figure?

Worked examples follow.
COCCn1c(-c2cccs2)ncc(C(=O)C2=C(O)CCCC2=O)c1=O [Compound 108] ... 65
O=C1CCCC(O)=C1C(=O)c1cnc(-c2ccsc2)n(C2CCCCC2)c1=O [Compound 99] ... 75
O=C1CCCC(O)=C1C(=O)c1cnc(-c2ccccc2)n(C2CCCCCC2)c1=O [Compound 130] ... 80

Q: I would be grateful if you could share the reported Plant response rating, Surinam Grass for O=C1CCCC(O)=C1C(=O)c1cnc(-c2ccccc2)n(C2CCOCC2)c1=O [Compound 129] .
Result: 85

====

# System: velvetleaf (Abutilon theophrasti)
# assay-comment: Test A pre-/postemergence plant response
# Format: in vivo
# condition-details: Preemergence, 500 g ai/ha; visual injury, 0 to 100 scale (0 no effect, 100 complete control), approx. ten days
Below, each entry is listed with its recorded Plant response rating, Velvetleaf.
Would you mind answering with just the numeric figure?

Worked examples follow.
COCCn1c(-c2ccco2)ncc(C(=O)C2=C(O)CCCC2=O)c1=O [Compound 111] ... 100
Cc1ccc(C)c(-n2c(-c3ccccc3)ncc(C(=O)C3=C(O)CCCC3=O)c2=O)c1 [Compound 29] ... 100
Cc1ccc(Cl)cc1-n1c(-c2ccccc2)ncc(C(=O)C2=C(O)CCCC2=O)c1=O [Compound 52] ... 100
CCCCCCn1c(-c2ccccc2)ncc(C(=O)C2=C(O)CCCC2=O)c1=O [Compound 94] ... 70
CCCn1c(-c2cccc(F)c2)ncc(C(=O)C2=C(O)CCCC2=O)c1=O [Compound 127] ... 100

Q: I would be grateful if you could share the reported Plant response rating, Velvetleaf for Cc1cccc(C)c1-n1c(-c2ccccc2)ncc(C(=O)C2=C(O)CCCC2=O)c1=O [Compound 31] .
Result: 70

Q: I would be grateful if you could share the reported Plant response rating, Velvetleaf for O=C1CCCC(O)=C1C(=O)c1cnc(-c2ccccc2)n(C2CCOCC2)c1=O [Compound 129] .
Result: 90

Q: I would be grateful if you could share the reported Plant response rating, Velvetleaf for Cc1cccc(-n2c(-c3ccccc3)ncc(C(=O)C3=C(O)CCCC3=O)c2=O)c1 [Compound 18] .
Result: 100

====

# System: corn (Zea mays)
# assay-comment: Test A pre-/postemergence plant response
# Type: in vivo
# condition-details: Postemergence, 500 g ai/ha; 0 to 100 scale, 0 = no effect, 100 = complete control; approx. ten days
measured-quantity: Plant response rating, Corn
Would you mind answering with just the numeric figure?

Cc1ccc(Cl)cc1-n1c(-c2cccc(Cl)c2)ncc(C(=O)C2=C(O)CCCC2=O)c1=O ... 60

Q: I would be grateful if you could share the reported Plant response rating, Corn for CCCn1c(-c2ccccc2F)ncc(C(=O)C2=C(O)CCCC2=O)c1=O .
Result: 10

Q: I would be grateful if you could share the reported Plant response rating, Corn for O=C1CCCC(O)=C1C(=O)c1cnc(-c2ccccc2)n(-c2ccc(F)cc2)c1=O .
Result: 30

Q: I would be grateful if you could share the reported Plant response rating, Corn for O=C1CCCC([O-])=C1C(=O)c1cnc(-c2ccccc2)n(-c2ccccc2)c1=O.[K+] .
Result: 20

====

# Tested on: ducksalad (Heteranthera limosa)
# assay-comment: Test B flooded paddy test
# Type: in vivo
# condition-details: Flood (flooded paddy test), 125 g ai/ha; scale 0 to 100, 0 is no effect, 100 is complete control; 13 to 15 days
# Text: Plant species in the flooded paddy test consisted of rice (Oryza sativa), umbrella sedge (Cyperus difformis), ducksalad (Heteranthera limosa) and barnyardgrass (Echinochloa crus-galli) grown to the 2-leaf stage for testing. […] Treated plants and controls were maintained in a greenhouse for 13 to 15 days, after which time all treated plants were visually evaluated and compared to controls. […]
Classify as follows. Reported Plant response rating, Ducksalad greater than or equal to 60: 1. Reported Plant response rating, Ducksalad below: -1.

O=C1CCCC(O)=C1C(=O)c1cnc(-c2cccc(Br)c2)n(-c2ccccc2)c1=O [Compound 69] ... -1

Q: Does the molecule O=C1CCCC(O)=C1C(=O)c1cnc(-c2ccc(F)c(F)c2)n(C2CCCCC2)c1=O [Compound 198] have recorded Plant response rating, Ducksalad that is 60 or more?
Result: 1

Q: Does the molecule O=C1CCCC(O)=C1C(=O)c1cnc(-c2cc(F)cc(F)c2)n(CC2CCCO2)c1=O (centres unmarked) [Compound 180] have recorded Plant response rating, Ducksalad that is 60 or more?
Result: 1

====

# Test system: wheat (Triticum aestivum)
# assay-comment: Test B pre-/postemergence plant response
# Assay type: in vivo
# condition-details: Postemergence, 62 g ai/ha; scale 0 (no effect) to 100 (complete control); 13 to 15 days
measured-quantity: Plant response rating, Wheat
Would you mind answering with just the numeric figure?

Worked examples follow.
O=C1CCCC([O-])=C1C(=O)c1cnc(-c2ccccc2)n(-c2ccccc2)c1=O.[K+] ... 0
Cc1ccc(C)c(-n2c(-c3ccccc3)ncc(C(=O)C3=C(O)CCCC3=O)c2=O)c1 ... 0
Cc1cc(F)ccc1-n1c(-c2ccccc2)ncc(C(=O)C2=C(O)CCCC2=O)c1=O ... 0

Continue with the compound presented below.
Q: I would be grateful if you could share the reported Plant response rating, Wheat for O=C1CCCC(O)=C1C(=O)c1cnc(-c2cccc(Cl)c2)n(-c2ccccc2)c1=O .
Result: 10

====

Below, each entry is listed with its recorded Plant response rating, Oat, Wild.
# Test system: wild oat (Avena fatua)
# assay-comment: Test B pre-/postemergence plant response
# Type: in vivo
# condition-details: Postemergence, 250 g ai/ha; scale 0 to 100 (0 no effect, 100 complete control)

Worked examples follow.
O=C1CCCC(O)=C1C(=O)c1cnc(-c2cccs2)n(CC2CCCO2)c1=O (centres unmarked) ... 40
CCCc1ncc(C(=O)C2=C(O)CCCC2=O)c(=O)n1-c1cccc(C)c1 ... 75
O=C1CCCC(O)=C1C(=O)c1cnc(-c2ccsc2)n(CC2CCCO2)c1=O (centres unmarked) ... 50

Q: I would be grateful if you could share the reported Plant response rating, Oat, Wild for O=C1CCCC(O)=C1C(=O)c1cnc(-c2ccsc2)n(C2CCCCC2)c1=O .
Result: 80

Q: I would be grateful if you could share the reported Plant response rating, Oat, Wild for CCCn1c(-c2ccccc2)ncc(C(=O)C2=C(O)CCCC2=O)c1=O .
Result: 30
